tgt: UniProtKB P56817
measurement-description: In Vitro BACE Assay run by CEREP (Example 19)
Format: biochemical
condition-set: pH 4.5, 10.0 μM compound, recombinant enzyme
assay-metric: inhibition at 10 µM (%)
// units = %; emit number, no label

These recorded examples may help you get a feel for the data.
[
  {
    "compound": "CCOC(=O)C(COCc1ccccc1)NCCCC(c1cc2cc(Oc3ccccc3)ccc2nc1N)C1CCOCC1 (stereo not shown) [compound 89]",
    "tgt": "UniProtKB P56817",
    "inhibition at 10 µM (%)": 85
  },
  {
    "compound": "CCOc1cc2nc(N)c(C(CCC(=O)NCCC(C)(C)C)C3CCOCC3)cc2cc1Oc1ccccc1 (stereo not shown) [compound 102]",
    "tgt": "UniProtKB P56817",
    "inhibition at 10 µM (%)": 97
  },
  {
    "compound": "COc1cc2nc(N)c(C(CCC(=O)N(C)C3CCCCC3)C3CCOCC3)cc2cc1Oc1ccccc1 (stereo not shown) [compound 101]",
    "tgt": "UniProtKB P56817",
    "inhibition at 10 µM (%)": 85
  },
  {
    "compound": "Nc1nc2ccc(Oc3ccccc3)cc2cc1C(CCCC(=O)N(CCN1CCCC1)C1CCCCC1)C1CCOCC1 (stereo not shown) [compound 91]",
    "tgt": "UniProtKB P56817",
    "inhibition at 10 µM (%)": 86
  },
  {
    "compound": "CN(CCC[C@H](c1cc2cc(Oc3ccccc3)ccc2nc1N)C1CCOCC1)CC1CCCCC1 [compound 85]",
    "tgt": "UniProtKB P56817",
    "inhibition at 10 µM (%)": 98
  },
  {
    "compound": "Cn1ccnc1CN(CCCC(c1cc2cc(Oc3ccccc3)ccc2nc1N)C1CCOCC1)C1CCCCC1 (stereo not shown) [compound 94]",
    "tgt": "UniProtKB P56817",
    "inhibition at 10 µM (%)": 95
  }
]

Value sought: inhibition at 10 µM, system UniProtKB P56817, item COC(=O)C(COCc1ccccc1)NCCCC(c1cc2cc(Oc3ccccc3)ccc2nc1N)C1CCOCC1 (stereo not shown) [compound 95] . Result: 95

* * *

tgt: human BACE-1 (Homo sapiens, UniProt P56817)
Sequence (P56817 46-501): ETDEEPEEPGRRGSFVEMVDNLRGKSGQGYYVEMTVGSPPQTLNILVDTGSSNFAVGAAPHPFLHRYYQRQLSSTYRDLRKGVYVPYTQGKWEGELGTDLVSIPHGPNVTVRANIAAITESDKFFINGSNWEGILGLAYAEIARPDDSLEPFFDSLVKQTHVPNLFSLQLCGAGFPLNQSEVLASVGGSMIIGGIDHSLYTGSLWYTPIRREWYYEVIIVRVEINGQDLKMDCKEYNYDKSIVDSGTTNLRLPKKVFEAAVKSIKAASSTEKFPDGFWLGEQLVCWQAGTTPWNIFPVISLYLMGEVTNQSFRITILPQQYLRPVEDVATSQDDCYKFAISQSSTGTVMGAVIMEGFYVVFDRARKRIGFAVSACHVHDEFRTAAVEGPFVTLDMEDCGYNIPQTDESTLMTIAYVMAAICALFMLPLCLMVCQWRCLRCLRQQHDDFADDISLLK
measurement-description: In Vitro BACE Assay run by CEREP (Example 19)
Type: biochemical
condition-set: pH 4.5, 10.0 μM compound, recombinant enzyme
// inhibition at 10 µM lookup, one value per entry
Give the value, in units of %, as a plain number.

A selection of reference data follows.
[
  {
    "molecule": "Cn1ccnc1CN(CCC(C)(C)C)C(=O)CCCC(c1cc2cc(Oc3ccccc3)ccc2nc1N)C1CCOCC1 (stereo not drawn) [compound 87]",
    "unit-tag": "%",
    "inhibition at 10 µM": 99
  },
  {
    "molecule": "COc1cc2nc(N)c(C(CCC(=O)N(CCN3CCOCC3)C3CCCCC3)C3CCOCC3)cc2cc1Oc1ccccc1 (stereo not drawn) [compound 107]",
    "unit-tag": "%",
    "inhibition at 10 µM": 89
  }
]

For CC(C)C(CO)NCCCC(c1cc2cc(Oc3ccccc3)ccc2nc1N)C1CCOCC1 (stereo not drawn) [compound 96] the molecule record lists inhibition at 10 µM as 83
